Test target: T1, ANK domain of Notch1 intracellular segment N1ICD (UniProt P46531 1872-2126)
T1 chain: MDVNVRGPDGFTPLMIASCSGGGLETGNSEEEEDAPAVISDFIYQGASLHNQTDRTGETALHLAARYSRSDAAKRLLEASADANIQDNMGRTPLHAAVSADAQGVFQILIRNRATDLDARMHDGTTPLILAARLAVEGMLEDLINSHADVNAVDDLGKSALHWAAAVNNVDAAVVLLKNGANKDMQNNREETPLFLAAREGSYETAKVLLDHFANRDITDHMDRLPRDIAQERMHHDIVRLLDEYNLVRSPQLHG
Test details: SPR
Measurement label: Kd (nM)

I: LLEKKRQY [AH1]
II: YAKRIFYQLLSKEL [AH2 (α-helix 2 of N1DARP)]
Sorting by Kd in descending order, would I or II appear first? Write down the label of the entry you select. I
